Numbers sourced from patent US10821115B2.

- SYSTEM UNDER TEST: recombinant human Mcl-1 (residues 171-327) / Bim interaction (Homo sapiens (Human))
- Sequence (Q07820 171-327): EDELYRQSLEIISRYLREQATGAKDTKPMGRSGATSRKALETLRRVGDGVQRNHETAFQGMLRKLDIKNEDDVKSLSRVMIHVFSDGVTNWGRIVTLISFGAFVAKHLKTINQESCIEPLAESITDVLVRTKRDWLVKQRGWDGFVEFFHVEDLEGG
- MEASUREMENT DESCRIPTION: biochemical
- Assay type: binding
- RUN PARAMETERS: 0.1 nM Mcl-1(171-327), 0.05 nM biotin-Bim (51-76); read-out: Mcl-1 HTRF IC50
pIC50: −log10 of the molar value.
Items are presented alongside their recorded pIC50.
PARAMETER MEASURED: pIC50

CCO[C@@]1(CN2CCC3(CC2)COC3)/C=C/C[C@H](C)[C@@H](C)S(=O)(=O)NC(=O)c2ccc3c(c2)N(C[C@@H]2CC[C@H]21)C[C@@]1(CCCc2cc(Cl)ccc21)CO3 = 8.98
CCO[C@]1(CN2CCN3CCCC[C@@H]3C2)/C=C/C[C@H](C)[C@@H](C)S(=O)(=O)NC(=O)c2ccc3c(c2)N(C[C@@H]2CC[C@H]21)C[C@@]1(CCCc2cc(Cl)ccc21)CO3 = 9.70
CO[C@@]1(CN2CCN3C[C@@H](C)OC[C@@H]3C2)/C=C/C[C@H](C)[C@@H](C)S(=O)(=O)NC(=O)c2ccc3c(c2)N(C[C@@H]2CC[C@H]21)C[C@@]1(CCCc2cc(Cl)ccc21)CO3 = 9.42
